The measurements presented in this section are drawn from PubChem BioAssay (EPA / NIEHS).

- protocol_text: CEETOX_H295R_CORTIC: CeeTox H295R High-throughput Steroidogenesis Assay for Corticosterone (CORTIC) (AID 2283437);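 note: corticosterone secreted into medium quantified by mass spectrometry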
- stated_conditions: actives raise or lower the signal
Calls of active or inactive are those of the source. Rule for the calls: active = hit-call score of the fitted dose curve at least 0.9, where 1 is the maximum; inactive = score below 0.9.
quantity_measured: outcome

Answered examples (5):
compound: S=C([S-])NCCNC(=S)[S-].[Mn+2]
outcome: inactive
//
compound: c1ccc2[nH]c(-c3cscn3)nc2c1
outcome: inactive
//
compound: C#C[C@]1(O)CC[C@H]2[C@@H]3CCC4=CC(=O)CC[C@@H]4[C@H]3CC[C@@]21CC
outcome: inactive
//
compound: CCCCC(CC)CN1C(=O)C2C3C=CC(C3)C2C1=O (stereo unspecified)
outcome: inactive
//
compound: CCCN(CCC)C(=O)SCC
outcome: inactive

Provide only the value of recorded outcome for CCCCOC(=O)[C@@H](C)Oc1ccc(Oc2ccc(C(F)(F)F)cn2)cc1 inactive

Provide only the value of recorded outcome for CC1(C)C(C=C(Cl)Cl)C1C(=O)OCc1cccc(Oc2ccccc2)c1 (stereo unspecified) inactive

Provide only the value of recorded outcome for CCOC(=O)C(C)Oc1ccc(Oc2cnc3cc(Cl)ccc3n2)cc1 (stereo unspecified) inactive

Provide only the value of recorded outcome for CN(C)C(=O)Nc1ccc(Cl)c(Cl)c1 inactive

Provide only the value of recorded outcome for CCCCCOC(=O)COc1cc(N2C(=O)C3=C(CCCC3)C2=O)c(F)cc1Cl inactive

Provide only the value of recorded outcome for C=CCOC(Cn1ccnc1)c1ccc(Cl)cc1Cl (stereo unspecified) inactive

----------
- Read-out: HMG-CoA synthase (HMGCS2), HMGCS2 (gene 3158)
- protocol_text: CLD_HMGCS2_48hr: CellzDirect (CLD) Gene Expression Assay for HMG-CoA synthase (HMGCS2) at 48 hours (AID 2283711)
- Procedure: CLD_48hr is a cell-based, multiplexed-readout assay that uses hepatocyte, a human liver primary cell, with measurements taken at 48 hours after chemical dosing in a 96-well plate.CLD_HMGCS2_48hr is one of 16 assay component(s) measured or calculated from the CLD_48hr assay. […] Furthermore, this assay endpoint can be referred to as a primary readout. […]
Inconclusive results are not listed. Activity calls are given as the source filed them. The calls were made as follows: active = hit-call score of the fitted dose curve at least 0.9, where 1 is the maximum; inconclusive = response in the unintended direction; inactive = score below 0.9.
Returns: one label drawn from 1.0 (active), 0.0 (inactive)

compound: C#CCOC(=O)[C@@H](C)Oc1ccc(Oc2ncc(Cl)cc2F)cc1
discrete_label: 0.0

Per the assay record, what outcome was assigned to CCCCCCC(C)OC(=O)COc1nc(F)c(Cl)c(N)c1Cl (stereo not drawn) ? 0.0

Per the assay record, what outcome was assigned to c1ccc2[nH]c(-c3cscn3)nc2c1 ? 0.0

Per the assay record, what outcome was assigned to CCCOC(=O)NCCCN(C)C ? 0.0

Per the assay record, what outcome was assigned to CCCCOC(=O)[C@@H](C)Oc1ccc(Oc2ccc(C(F)(F)F)cn2)cc1 ? 0.0

Per the assay record, what outcome was assigned to COC(=O)c1ccccc1S(=O)(=O)NC(=O)Nc1nc(OC(F)F)cc(OC(F)F)n1 ? 0.0

Per the assay record, what outcome was assigned to CCOC(=O)[C@H](C)Oc1ccc(Oc2nc3ccc(Cl)cc3o2)cc1 ? 0.0

Per the assay record, what outcome was assigned to CCCOC(=O)c1ccc(C(=O)OCCC)nc1 ? 1.0

----------
- target_or_test_system: mouse Peroxisome Proliferator-activated Receptor gamma (PPARg), Pparg (gene 19016) (UniProt P37238)
- Sequence (P37238 whole entry, looked up): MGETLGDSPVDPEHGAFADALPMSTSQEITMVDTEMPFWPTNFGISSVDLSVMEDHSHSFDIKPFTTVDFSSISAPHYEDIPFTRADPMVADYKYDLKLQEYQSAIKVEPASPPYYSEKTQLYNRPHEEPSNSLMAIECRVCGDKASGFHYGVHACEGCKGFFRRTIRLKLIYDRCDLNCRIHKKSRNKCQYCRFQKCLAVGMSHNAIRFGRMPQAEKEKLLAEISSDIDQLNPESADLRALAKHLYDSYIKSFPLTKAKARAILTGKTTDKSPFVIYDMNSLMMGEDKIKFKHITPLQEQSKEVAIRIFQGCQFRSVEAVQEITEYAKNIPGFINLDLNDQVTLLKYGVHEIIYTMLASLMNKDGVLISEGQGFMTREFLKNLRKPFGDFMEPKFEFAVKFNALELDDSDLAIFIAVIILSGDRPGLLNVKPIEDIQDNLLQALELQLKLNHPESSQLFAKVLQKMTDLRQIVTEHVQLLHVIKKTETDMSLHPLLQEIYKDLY
- protocol_text: ATG_mPPARg_XSP2: Attagene TRANS-FACTORIAL Multi-Species (XSP2) HepG2 Assay for mouse Peroxisome Proliferator-activated Receptor gamma (PPARg) (AID 2283830);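 note: hits are gains in reporter mRNA above DMSO so AC50 marks activation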
- Protocol: ATG_XSP2_multi-species_TRANS is a cell-based, multiplexed assay created by modifying the existing Attagene TRANS-FACTORIAL system to include a panel of nuclear receptors from some or all the following species: human (Homo sapiens), mouse (Mus musculus), frog (Xenopus laevis), zebrafish (Danio rerio), chicken (Gallus gallus), and turtle (Chrysemys picta). The ECOTOX-FACTORIAL format uses HepG2, a human liver cell line, with measurements taken at 24 hours after chemical dosing in a 24-well plate. […]
Results filed as inconclusive are left out. Calls of active or inactive are those of the source. How the source made its calls: active means hit-call score of the fitted dose curve at least 0.9, where 1 is the maximum; inconclusive means response in the unintended direction; inactive means score below 0.9.
Returns: one label drawn from Y for active, N for inactive

compound: CCCCC(CC)COC(=O)c1ccccc1C(=O)O (stereo unspecified)
discrete_label: Y

compound: C=CCOC(Cn1ccnc1)c1ccc(Cl)cc1Cl (stereo unspecified)
discrete_label: Y

compound: O=C(c1ccc(O)cc1O)c1ccc(O)cc1O
discrete_label: N

compound: CC(C)CCCCCCc1ccc(O)cc1
discrete_label: N

Per the assay record, what outcome was assigned to CC(C)(c1ccc(O)cc1)c1ccc(O)cc1 ? N

Per the assay record, what outcome was assigned to CCCCC(CC)CN1C(=O)C2C3C=CC(C3)C2C1=O (stereo unspecified) ? Y

----------
- Read-out: UDP glucuronosyltransferase (UGT1A1), UGT1A1 (gene 54658)
- protocol_text: LTEA_HepaRG_UGT1A1: Life Technologies and Expression Analysis (LTEA) Assay for UDP glucuronosyltransferase (UGT1A1) using HepaRG (AID 2283538)
- stated_conditions: mRNA level, 48 h; actives raise or lower the signal
The source made the active and inactive calls. How the source made its calls: active means hit-call score of the fitted dose curve at least 0.9, where 1 is the maximum; inactive means score below 0.9.
Returns: one label drawn from YES (active), NO (inactive)

Below are worked cases with known answers.
molecule: CC(C)CCCCCCc1ccc(O)cc1
discrete_label: NO

molecule: C[C@]12CC[C@@H]3c4ccc(O)cc4C[C@@H](CCCCCCCCCS(=O)CCCC(F)(F)C(F)(F)F)[C@H]3[C@@H]1CC[C@@H]2O (stereo partly specified)
discrete_label: YES

molecule: CCSC(=O)N(CC(C)C)CC(C)C
discrete_label: NO

molecule: O=C(c1ccccc1)C1CCCCC1
discrete_label: NO

molecule: O=C(Nc1ccc([N+](=O)[O-])cc1Cl)c1cc(Cl)ccc1O
discrete_label: YES

molecule: Oc1ccc(C(c2ccc(O)cc2)C(Cl)(Cl)Cl)cc1
discrete_label: YES

molecule: CC(=O)[C@H]1CC[C@H]2[C@@H]3CCC4=CC(=O)CC[C@]4(C)[C@H]3CC[C@]12C
discrete_label: YES

molecule: CCCCOC(=O)C(C)Oc1ccc(Oc2ccc(C(F)(F)F)cn2)cc1 (stereo unspecified)
discrete_label: NO

Per the assay record, what outcome was assigned to C#CCOC(=O)[C@@H](C)Oc1ccc(Oc2ncc(Cl)cc2F)cc1 ? YES

Per the assay record, what outcome was assigned to CCCCC(CC)COC(=O)c1ccccc1C(=O)O (stereo unspecified) ? YES

Per the assay record, what outcome was assigned to CC(C)(C)[C@@H](O)[C@@H](Cc1ccc(Cl)cc1)n1cncn1 ? YES

----------
- Read-out: CD40, CD40 (gene 958)
- protocol_text: BSK_LPS_CD40: BioMAP Diversity Plus: LPS Assay for CD40 Biomarker Activity (AID 2283076)
- stated_conditions: primary human HUVEC with PBMC; actives raise or lower the signal
Calls of active or inactive are those of the source. Rule for the calls: active = hit-call score of the fitted dose curve at least 0.9, where 1 is the maximum; inactive = score below 0.9.
Returns: one label drawn from Y = active, N = inactive

Below are worked cases with known answers.
compound: COC(=O)c1ccccc1S(=O)(=O)NC(=O)Nc1nc(OC(F)F)cc(OC(F)F)n1
discrete_label: N
--
compound: CCN(Cc1c(F)cccc1Cl)c1c([N+](=O)[O-])cc(C(F)(F)F)cc1[N+](=O)[O-]
discrete_label: Y
--
compound: O=C(Nc1ccc([N+](=O)[O-])cc1Cl)c1cc(Cl)ccc1O
discrete_label: Y
--
compound: CC(C)(c1ccc(O)cc1)c1ccc(O)cc1
discrete_label: N
--
compound: COC(=O)c1c(Cl)nn(C)c1S(=O)(=O)NC(=O)Nc1nc(OC)cc(OC)n1
discrete_label: N
--
compound: CSC(=O)c1cccc2nnsc12
discrete_label: N
--
compound: CCNc1nc(N)nc(Cl)n1
discrete_label: N
--
compound: O=C(c1ccc(O)cc1O)c1ccc(O)cc1O
discrete_label: N

Per the assay record, what outcome was assigned to CCCCOCCOCCOCc1cc2c(cc1CCC)OCO2 ? Y

Per the assay record, what outcome was assigned to CC(=O)S[C@@H]1CC2=CC(=O)CC[C@]2(C)[C@H]2CC[C@@]3(C)[C@@H](CC[C@@]34CCC(=O)O4)[C@H]12 ? Y

Per the assay record, what outcome was assigned to c1ccc2[nH]c(-c3cscn3)nc2c1 ? N

Per the assay record, what outcome was assigned to COC(=O)c1cccc(C)c1S(=O)(=O)NC(=O)Nc1nc(OCC(F)(F)F)nc(N(C)C)n1 ? N

Per the assay record, what outcome was assigned to c1ccc(Nc2ccccc2)cc1 ? N

Per the assay record, what outcome was assigned to CC1(C)C(C=C(Cl)Cl)C1C(=O)OCc1cccc(Oc2ccccc2)c1 (stereo not drawn) ? N

Per the assay record, what outcome was assigned to O=C(O)c1ccccc1 ? N

Per the assay record, what outcome was assigned to C=CCOC(Cn1ccnc1)c1ccc(Cl)cc1Cl (stereo not drawn) ? Y

Per the assay record, what outcome was assigned to S=C(S)NCCNC(=S)S.[Mn+2].[S-]C([S-])=NCCN=C([S-])[S-].[Zn+2] ? N

Per the assay record, what outcome was assigned to CCCCCOC(=O)COc1cc(N2C(=O)C3=C(CCCC3)C2=O)c(F)cc1Cl ? Y
